Test Target: hMPV A2 F (human metapneumovirus)
Protocol Description: ELISA on coated recombinant protein, OD 405 nm
A collection of binders and their measured EC50
Write it as a number; the unit µg/mL goes unstated.

Examples with answers:
{"Binder": "MPV483 (antibody, V domains shown) VH: EVQLVQSGAELKKPGSSVKVSCKASGDTFSNYAISWVRQAPGQGLEWMGGIIPIYNTANYAQKFQGRVTLTADESTSTAYMELSSLRSEDTAVYYCARDVRNNWSVLRGARYYYYGMDVWGQGTTVTVSS VL: DIVMTQTPFSLSASVGDRVTVTCRASQDISNSLAWFQQKPGKAPKSLIYAASSLQSGVPTRFSGGGSGTDFTLTISSLQPEDFATFYCLQYDSFPPTFGGGTKVEI", "Readout Unit": "µg/mL", "EC50": 0.07}
{"Binder": "MPV481 (antibody, V domains shown) VH: EVQLVQSGGGLVKPGGSLRLSCAASGLPFNNAWMNWVRQAPGKGLEWVGRIKSKIDGGTTEYAAPVKGRFTISRDDSENTLYLQMNSLRTEDTAVYYCTTEYYALLSGNYSDCWGQGTLVTVSS VL: DIVMTQSPFSLSLSPGERATLSCRASQSIKRAYLGWYQQKPGQAPRLLIYGASNRATGIPDRFSGSGSGTDFTLTISRLEPEDFAVYYCQQYGDSPGGSFGQGTKLEIR", "Readout Unit": "µg/mL", "EC50": 0.11}

For the next question, use this binder.
Exam item: Entry MPV454 (antibody, V domains shown) VH: EVQLVESGGGLVKPGGSLRLSCSTSGFVFSSYAMHWVRQAPGKGLEHVSAISSTGDNTHYADSVKGRFTISRDNSRGRLYLQMTSVRPEDAALYYCVKDLYSGRFYYFLDDWGQGTRIIVSS VL: DIQVTQSPSSLSASVGDRVTISCRASQNISNYLNWFQQRPGKAPKLLIYVASTLQSGAPSRFSGSGSGTDFTLTITDLQPEDFATYYCQQSYNTPPITFGQGTRLEIK : reported EC50 = ?
Marked response: 0.12
